Hello, the source for this data is the supplement of paper PMC9170038, in case you need it.

test system: MS2 coat protein; assay: apparent KD of MS2 coat protein; higher = weaker reporter binding; details: Eterna round: R107; input ligand: arginine 13.2 mM
Class True: apparent KD of MS2 coat protein at least 0.03 µM. Class False: apparent KD of MS2 coat protein below 0.03 µM.

Some entries whose results are on file:
{"columns": ["SEQUENCE_CHAIN", "CLASS_ASSIGNMENT"],
 "data": [
  ["UUGGUUAUGCGAAGGAGCGGGAAAUAUAUAUAUAUAAUCCUAACAUGAGGAUCACCCAUGUCCCAGGUAGGUCGCGCAUAGUUGG [12.I]", "True"],
  ["ACAUGAGGAUCACCCAUGUAAGGUCUUGAUACCAGACGCGAAGUAGUCCCUUGGCAGCAAAUACGUGAGGGUCGCACAUGUGUAA [mcnmullin]", "False"],
  ["AAUAACAUGAGGAUCACCCAUGUAAAAGAUACCAGAGUGAUGAUCCUCCCUUGGCAGCUUAAUAACGCUAUCGGAAACGAUAGCG [Mat - Same State Theophlline A - Mod of Eli - D8]", "True"]
]}

Hello, I need to know if UAUAUAUAACAUGAGGAUCACCCAUGUAAACGAGGACCGGUACGGCCGCCACUCGGCCGGCAAGGGAGAGGACGGGAAACCGUCG [ETA NP+V+V2 #26] has measured apparent KD of MS2 coat protein not below 0.03 µM. Thanks!
False

Please tell me: is the sequence GGUCUCUGGAGCGAUACCAGCUUGAGUGUACUGGCCAGGUACAUGAGGAUCACCCAUGUAAGCCCUUGGCAGCGCUCCAGAGACC [#1 Exclusion - Theophylline B Attempt #15 (HarryS)] at or over 0.03 µM in terms of apparent KD of MS2 coat protein?
False

Quick check: does UUCGUUUACGGAAGGAGCGACGGACAUCGGUGAUCUAUGCACAUGAGGAUCACCCAUGUACGUCAGGUAGGUCGCCGUUAAGAGU [XArg-B28] have apparent KD of MS2 coat protein greater than or equal to 0.03 µM?
False

Check the entry AAAUGAAGGCGAAGGAGCGGGAACAUGAGGAUCACCCAUGUGUAUGUAUGUAGUCAUGUAUCUCAGGUAGGUCGCGCUGUUACAU [Exclusion Arginine B 2] : does apparent KD of MS2 coat protein equal or exceed 0.03 µM?
True

* * *

tested on: K4 kissing-loop RNA reporter; test: apparent KD of K4 kissing-loop reporter; higher = weaker reporter binding; settings: Eterna round: R107; input ligand: arginine 13.2 mM;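 also: bound reporter read as fluorescence of individual clusters on recovered sequencing chips by microscopy, with normalized cluster intensities fitted with a binding model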
OUTCOME_MEASURE: apparent KD of K4 kissing-loop reporter (nM)
API: value field is a number in nM; no unit string.

{"columns": ["SEQUENCE_CHAIN", "UNIT_SYMBOL", "apparent KD of K4 kissing-loop reporter"],
 "data": [
  ["AAGUGUGUGGCGGCCGCCACUAGAAUCCAGUGAUGUUGGAGAUAUCACGUAAGUGAUAUCCACCAUAGGACCGGGCCAUAUAGAA [Same State - Tryptophan B (Freestyle 13)]", "nM", 758],
  ["UCACAAGUUAACUAGUGAUGUUAGUUAGUACGAGGACCGGUACGGCCGCCACUCGAAAAGUGGUUUUACGGACUUUUGGGCAGGC [theeternabot_sameState_KL_Trp_A_17]", "nM", 250]
]}

Attention now turns to another entry.
The sequence identified as UUUAAAUAUAGUGAUGUUAUAUAACAAUGACGAGGACCGGUACGGCCGCCACUCGAGAGAGAUAAUGGUCUUACAAAUGUAAGUU [AstrosSSTryA#9] registered its apparent KD of K4 kissing-loop reporter at 646

* * *

test system: MS2 coat protein; assay: apparent KD of MS2 coat protein; designed switch direction (-1 OFF switch, 1 ON switch): -1; higher = weaker reporter binding; conditions: input ligand: FMN 200 uM
Param threshold (90 nM) applies to apparent KD of MS2 coat protein; output Satisfied when value >= threshold, Not satisfied when value < threshold.

{"columns": ["SEQUENCE_CHAIN", "CLASS_ASSIGNMENT"],
 "data": [
  ["GAAUAACAUGAGGAUCACCCAUGUUAGGAUAUGACGUCGUUUAGUCUUUAAACGAGCGUUAGAAGGAACAGGUG [Eternabot (L1) Solution 11] (Eterna round: R97, puzzle: Exclusion 1)", "Not satisfied"]
]}

Textbook exercise: given the entry ACAUGAGGAUCACCCAUGUUUGGCUGGUCGUCUCCGGCUGUCGAGGAUAUAGUACGGUAUCCGCGCUAGAAGGUGAGGGCCGGC [Raxeorer] (Eterna round: R96, puzzle: Exclusion NG 3) , state whether its apparent KD of MS2 coat protein is greater than or equal to 90 nM.
Not satisfied

Textbook exercise: given the entry CAGCUGAAAGUCAGGAUAUCUAGAGCCUCGGCUCUAGAGAAGGGACAUGAGGAUCACCCAUGUGGUCACAGCUG [BmEx4/5-A2] (Eterna round: R97, puzzle: Brourd's mod of Exclusion 4) , state whether its apparent KD of MS2 coat protein is greater than or equal to 90 nM.
Satisfied

Is apparent KD of MS2 coat protein at least 90 nM? Consider GUAAACGCAGAGGAUAUAUCAGAUCAAAGCUGCAUAGAAGGCUGCACAUGAGGAUCACCCAUGUGGUCUUUAAG [Mat - Exclusion 6 - JL Mod - D4] (Eterna round: R97, puzzle: Exclusion 6)
Satisfied

Is it the case that UAAAAGGCAGGAUAUGCAGAAAAGGAAACUUUUCAAGAAUGACAUGAGGAUCACCCAUGUAGAAGGGCCUUUUA [Alacar Attempt 3] (Eterna round: R97, puzzle: Exclusion 2) has apparent KD of MS2 coat protein reaching or exceeding 90 nM?
Not satisfied

hey, is apparent KD of MS2 coat protein for this one >= 90 nM? UGUACGAUGCGUGCUGACAUGCGUCGUGCAGCAGGUGGAACAUGAGGAUCACCCAUGUCCUCAUUUGCUCGUCUUAU [Mat - Sensor v3 - Turn-off var 2 - D21] (Eterna round: R96, puzzle: Sensor v3, turn-off variant 2)
Not satisfied

Evaluate UAUAUGUCAGGAUAUCGAUUGGAACAGAAUUUAACAAUGGUCGAGAAGGGACAUGAGGAUCACCCAUGUUCAAC [JR_Ex4_Sub020] (Eterna round: R97, puzzle: Exclusion 4) : apparent KD of MS2 coat protein at minimum 90 nM?
Not satisfied

Textbook exercise: given the entry GUUGUUUAUGUAGGAUAUGCGAGGCGAGCCUAAGCAGAAGGACAUGAGGAUCACCCAUGUAUUGCGGUCUGCGUUCAGAUCGCU [salish99_ExNG1_r4_016] (Eterna round: R96, puzzle: Exclusion NG 1) , state whether its apparent KD of MS2 coat protein is greater than or equal to 90 nM.
Satisfied

Given the entry GUUAUCGCAGGAUAUUAAUACUUGUACAUGAGGAUCACCCAUGUUUAUUGGGAUUAAGAAUAAGAAGGGCGAUGAA [JR_Ex5_Sub003] (Eterna round: R97, puzzle: Exclusion 5) , answer whether its apparent KD of MS2 coat protein meets or surpasses 90 nM.
Not satisfied

Please indicate if the recorded apparent KD of MS2 coat protein for UAUUAGCAAGCGAGAUCCCACAUGAGGAUCACCCAUGUGCUCGUCUUAUAUAAGGUACUGUACGAUAGUACGGUACC [Mat - Sensor, turn-off var - Eli Mod - D28] (Eterna round: R97, puzzle: Sensor, turn-off variant 1) meets or exceeds 90 nM.
Not satisfied

Is apparent KD of MS2 coat protein at least 90 nM? Consider ACGCUACAUGAGGAUCACCCAUGUGAGGAUAUUUGAUCCAGGCAGCAAAGGAUGAUACGGAGAAGGUACAUGGU [Eternabot (L1) Solution 35] (Eterna round: R97, puzzle: Exclusion 1)
Satisfied

I'd appreciate it if you could say whether AAAAGGCAGGGAGGAUAUGCUUGCCUGGGUCGUCUUCAAACAUGAGGAUCACCCAUGUAGUCGACGCAGAAGGCCCUCAAAGCC [Mat - Exclusion NG 2 - Mod of JL - D61] (Eterna round: R96, puzzle: Exclusion NG 2) has apparent KD of MS2 coat protein at least equal to 90 nM.
Not satisfied

Reported apparent KD of MS2 coat protein at or above 90 nM? AGUAUUCGAGGAUAUACGUGCCAAUGAUCCAUGAGACUCCUACAUGAGGAUCACCCAUGUAGAAGGCGAAAACC [Eternabot (L1) Solution 99] (Eterna round: R97, puzzle: Exclusion 2)
Not satisfied

Hi, just wondering whether GAUCAUGCAGGAUAUACAUAAACCAUGAAAACAUGGAUCAAACAUGAGGAUCACCCAUGUAGAAGGGCAUGAUC [Omei Ex2 A20] (Eterna round: R97, puzzle: Exclusion 2) shows apparent KD of MS2 coat protein of 90 nM or higher.
Not satisfied

hey, is apparent KD of MS2 coat protein for this one >= 90 nM? ACAUGUCAUCGAGGAUAUUGGACACAUGAGGAUCACCCAUGUACUCGGAGGCUCUACUAUGAGUUCGAGAAGGCGAUGUACAUG [Ex NG2 #75] (Eterna round: R96, puzzle: Exclusion NG 2)
Satisfied

Please check the record UAAAUGUGAGGAUAUUCGAUGAACACGGAGACGUGUUUAUCGGAGAAGGCACAUGAGGAUCACCCAUGUUCCUU [Mat - Exclusion 4 - JL Mod - D5] (Eterna round: R97, puzzle: Exclusion 4) and state if its apparent KD of MS2 coat protein is at or above 90 nM.
Satisfied

Confirm if apparent KD of MS2 coat protein reported for the sequence CUUGUUUAUGUAGGAUAUGCCUGGCGUGCCUUUGCAGAAGGACAUGAGGAUCACCCAUGUACAUGAGGAUCACCCAUGUUCGCA [salish99_ExNG1_r04_102] (Eterna round: R96, puzzle: Exclusion NG 1) is 90 nM or above.
Satisfied

Hi, just wondering whether AAGUAUCAUGUAGGAUAUGCUAUCCGAACGGUAGCAGAAGGACAUGAGGAUCACCCAUGUUCUCAUCUGUGAGAACAGAUGUCU [Ex NG1 #5] (Eterna round: R96, puzzle: Exclusion NG 1) shows apparent KD of MS2 coat protein of 90 nM or higher.
Satisfied
